Assayed Target: human CCR6 (Homo sapiens, UniProt P51684)
Construct: expressed in transfected cells; host or cells: HEK-293
Protocol: FLIPR assay (inhibition of CCL20-induced calcium signal)
Type: cell-based
Stated Conditions: HEK-293 cells expressing human CCR6; mean values where determined several times; read-out: FLIPR IC50
Observable: IC50 (nM)

Worked examples, 5 compounds total:
{"Compound": "Cc1cccc(C(C)(O)C#Cc2cncc([C@@](O)(c3ccc(CC(F)(F)F)cc3)C3(C)CN(C)C3)c2)n1 (stereo partly shown)", "Uom": "nM", "Val": 82.4}
{"Compound": "[2H]C([2H])([2H])C(=O)N1CC(c2nc(-c3cncc([C@@](O)(c4ccc(C(C)C)cc4)C4(C)CN(C)C4)c3)no2)C1", "Uom": "nM", "Val": 532}
{"Compound": "CC(C)c1ccc([C@](O)(c2cncc(C#CC(C)(C)O)c2)C2(C)CN(C)C2)cc1", "Uom": "nM", "Val": 80.8}
{"Compound": "CC(C)c1ccc([C@](O)(c2cncc(C3=CC(=O)CC3)c2)C2(C)CN(C)C2)cc1", "Uom": "nM", "Val": 49.4}
{"Compound": "COc1cc(C(C)(O)C#Cc2cncc([C@@](O)(c3ccc(C(C)C)cc3)C3(C)CN(C)C3)c2)ncn1 (single isomer, unassigned) [Example 622]", "Uom": "nM", "Val": 105}

[A] COc1cc(C(C)(O)CCc2cncc([C@@](O)(c3ccc(C(C)C)cc3)C3(C)CN(C)C3)c2)ncn1 (stereo partly shown)
[B] CC(C)c1ccc([C@](O)(c2cncc(-c3noc(C(C)(C)O)n3)c2)C2(C)CN(C)C2)cc1F
-- ask Could you tell me which of A and B has the lower IC50 reading? API: response body contains the label of the selected item.
-- reply B
(B: 56 nM, A: 86.3 nM)

----------
Assayed Target: human CCR6 (Homo sapiens, UniProt P51684)
Construct: expressed in transfected cells; host or cells: HEK-293
Protocol: FLIPR assay (inhibition of CCL20-induced calcium signal)
Format: cell-based
Stated Conditions: HEK-293 cells expressing human CCR6; mean values where determined several times; read-out: FLIPR IC50
pIC50: −log10 of the molar value.
Observable: pIC50

Field: example entries. Status: answers known.
{"Compound": "CC(C)c1ccc([C@](O)(c2cncc(N3CCC(O)(C4CC4)C3)c2)C2(C)CN(C)C2)cc1 (stereo partly shown)", "pIC50": 7.11}
{"Compound": "CC(C)c1ccc([C@](O)(c2cncc(-c3noc(CN4C(=O)CCC4=O)n3)c2)C2(C)CN(C)C2)cc1", "pIC50": 6.76}
{"Compound": "CC(C)c1ccc([C@](O)(c2cncc(CCC(C)(O)c3cccc(F)c3)c2)C2(C)CN(C)C2)cc1 (stereo partly shown)", "pIC50": 7.93}
{"Compound": "Cc1cc(C(C)(O)C#Cc2cncc([C@@](O)(c3ccc(C(C)C)cc3)C3(C)CN(C)C3)c2)nn1C (stereo partly shown) [Example 39]", "pIC50": 7.12}
{"Compound": "CC(C)c1ccc([C@](O)(c2cncc(CCC3(O)CC3)c2)C2(C)CN(C)C2)cc1", "pIC50": 7.17}

[I] CC(C)c1ccc([C@](O)(c2cncc(-c3nc(COC4CCOCC4)no3)c2)C2(C)CN(C)C2)cc1
[II] CC(C)c1ccc([C@](O)(c2cncc(-c3noc(C45CC(CO)(C4)C5)n3)c2)C2(C)CN(C)C2)cc1
-- ask Which of the two items, I and II , has the greater recorded pIC50? // respond with label for picked entry
-- reply II

----------
Assayed Target: human CCR6 (Homo sapiens, UniProt P51684)
Construct: expressed in transfected cells; host or cells: HEK-293
Sequence (P51684 1-374): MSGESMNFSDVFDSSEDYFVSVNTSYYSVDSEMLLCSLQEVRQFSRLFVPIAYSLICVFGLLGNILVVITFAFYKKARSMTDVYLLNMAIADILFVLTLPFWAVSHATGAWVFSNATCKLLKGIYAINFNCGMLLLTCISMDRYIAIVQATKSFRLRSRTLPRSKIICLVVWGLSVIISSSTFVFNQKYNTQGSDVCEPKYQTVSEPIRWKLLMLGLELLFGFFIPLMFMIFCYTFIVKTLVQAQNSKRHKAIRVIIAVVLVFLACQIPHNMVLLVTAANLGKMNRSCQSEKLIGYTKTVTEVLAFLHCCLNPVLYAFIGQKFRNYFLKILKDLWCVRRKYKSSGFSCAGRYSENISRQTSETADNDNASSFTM
Protocol: FLIPR assay (inhibition of CCL20-induced calcium signal)
Type: cell-based
Stated Conditions: HEK-293 cells expressing human CCR6; mean values where determined several times; read-out: FLIPR IC50
Method: FLIPR assay: The bioactivity of compounds is tested in a fluorometric imaging plate reader (FLIPR: Molecular Devices) using engineered HEK-293 cells expressing the human CCR6 (GenBank: AY242126). […] Changes in fluorescence are monitored before and after addition of the test compounds and agonist. […] The calculated IC50 values may fluctuate depending on the daily assay performance. […]
pIC50: −log10 of the molar value.
Observable: pIC50

{"Compound": "Cc1cc(C(C)(O)C#Cc2cncc([C@@](O)(c3ccc(C(C)C)cc3)C3(C)CN(C)C3)c2)nn1C (single isomer, unassigned) [Example 401]", "Assayed Target": "human CCR6 (Homo sapiens, UniProt P51684)", "pIC50": 6.93}
{"Compound": "CC(C)c1ccc([C@](O)(c2cncc(C#C[C@]3(O)CCN(C)C3=O)c2)C2(C)CN(C)C2)cc1", "Assayed Target": "human CCR6 (Homo sapiens, UniProt P51684)", "pIC50": 6.18}

[I] CC(C)c1ccc([C@](O)(c2cncc(-c3noc(C4CCN(C(=O)c5ccccc5)CC4)n3)c2)C2(C)CN(C)C2)cc1
[II] CC(C)c1ccc([C@](O)(c2cncc(OCCCO)c2)C2(C)CN(C)C2)cc1
-- ask I'd appreciate it if you could identify which of I and II has the greater pIC50. // output: label of the selected item
-- reply I
(I: 7.40, II: 7.11)

----------
Assayed Target: human CCR6 (Homo sapiens, UniProt P51684)
Construct: expressed in transfected cells; host or cells: HEK-293
Sequence (P51684 1-374): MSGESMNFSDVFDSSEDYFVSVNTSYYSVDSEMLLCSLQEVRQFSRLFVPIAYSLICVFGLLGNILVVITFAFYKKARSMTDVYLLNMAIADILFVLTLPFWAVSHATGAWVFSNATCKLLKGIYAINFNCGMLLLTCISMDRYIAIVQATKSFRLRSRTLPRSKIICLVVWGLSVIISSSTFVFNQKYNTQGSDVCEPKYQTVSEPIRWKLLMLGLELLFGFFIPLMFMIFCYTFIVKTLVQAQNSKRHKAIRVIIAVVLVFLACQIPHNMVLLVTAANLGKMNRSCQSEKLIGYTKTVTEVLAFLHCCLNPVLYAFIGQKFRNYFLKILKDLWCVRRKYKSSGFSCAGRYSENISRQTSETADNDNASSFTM
Protocol: FLIPR assay (inhibition of CCL20-induced calcium signal)
Format: cell-based
Stated Conditions: HEK-293 cells expressing human CCR6; mean values where determined several times; read-out: FLIPR IC50
pIC50: −log10 of the molar value.
Observable: pIC50

Below: 5 molecules and their reported pIC50.
{"Molecule": "CC1([C@](O)(c2ccc(OC(F)(F)F)cc2)c2cncc(N3CCCC3)c2)CN(C2CC2)C1", "Assayed Target": "human CCR6 (Homo sapiens, UniProt P51684)", "Val": 7.13}
{"Molecule": "CC(C)c1ccc([C@](O)(c2ccnc(C3CCCC3)c2)C2(C)CN(C)C2)cc1", "Assayed Target": "human CCR6 (Homo sapiens, UniProt P51684)", "Val": 7.43}
{"Molecule": "CC(C)c1ccc([C@](O)(c2cncc(C#CC(C)(O)c3cccn3C)c2)C2(C)CN(C)C2)cc1 (stereo partly drawn)", "Assayed Target": "human CCR6 (Homo sapiens, UniProt P51684)", "Val": 7.79}
{"Molecule": "CC(C)c1ccc([C@](O)(c2cncc(N3CCC(C)(C)C3)c2)C2(C)CN(C)C2)cc1", "Assayed Target": "human CCR6 (Homo sapiens, UniProt P51684)", "Val": 7.53}
{"Molecule": "CC(C)c1ccc([C@](O)(c2cncc(C#Cc3cc4ccccc4[nH]3)c2)C2(C)CN(C)C2)cc1", "Assayed Target": "human CCR6 (Homo sapiens, UniProt P51684)", "Val": 7.46}

[a] CC(C)c1ccc([C@](O)(c2cncc(-c3noc(C4CCOCC4)n3)c2)C2(C)CN(C)C2)cc1
[b] Cc1ccc([C@](O)(c2cncc(N3CCCC3)c2)C2(C)CN(C)C2)cc1
-- ask Could you kindly indicate whether a or b has the higher pIC50 value? When you have decided, please share the label of that item.
-- reply a
(a: 7.27, b: 6.85)

[A] CC(C)c1ccc([C@](O)(c2cncc(OCC(C)(C)O)c2)C2(C)CN(C)C2)cc1
[B] CC(=O)N1CCC(C)(C#Cc2cncc([C@@](O)(c3ccc(C(C)C)cc3)C3(C)CN(C)C3)c2)CC1
[C] CN1CC(C)(C(O)(c2ccc(C3(C(F)(F)F)CC3)cc2)c2cncc(N3CCCC3)c2)C1 (stereo not drawn)
[D] COc1ccc(C(C)(O)CCc2cncc([C@@](O)(c3ccc(C(C)C)cc3)C3(C)CN(C)C3)c2)cc1 (stereo partly drawn)
-- ask With regard to pIC50, arrange the entries in ascending order, please. To answer, arrange all of the labels according to the requested order.
-- reply A, C, B, D

[a] CC(C)c1ccc([C@](O)(c2cncc(-c3noc(C4CCN(C(=O)C(C)(C)C)CC4)n3)c2)C2(C)CN(C)C2)cc1
[b] Cc1cc(C(C)(O)C#Cc2cncc([C@@](O)(c3ccc(C(C)C)cc3)C3(C)CN(C)C3)c2)nc(C)n1 (single isomer, unassigned) [Example 626]
-- ask Task for the reader: decide whether a or b has the larger pIC50. Kindly give the label for the entry you pick.
-- reply a
(a: 7.30, b: 6.95)

Where do the numbers come from? From patent US12617773B2.
